- TGT: EGFR (ErbB1) (Homo sapiens)
- Construct: purchased Invitrogen
- Sequence (P00533 25-1210): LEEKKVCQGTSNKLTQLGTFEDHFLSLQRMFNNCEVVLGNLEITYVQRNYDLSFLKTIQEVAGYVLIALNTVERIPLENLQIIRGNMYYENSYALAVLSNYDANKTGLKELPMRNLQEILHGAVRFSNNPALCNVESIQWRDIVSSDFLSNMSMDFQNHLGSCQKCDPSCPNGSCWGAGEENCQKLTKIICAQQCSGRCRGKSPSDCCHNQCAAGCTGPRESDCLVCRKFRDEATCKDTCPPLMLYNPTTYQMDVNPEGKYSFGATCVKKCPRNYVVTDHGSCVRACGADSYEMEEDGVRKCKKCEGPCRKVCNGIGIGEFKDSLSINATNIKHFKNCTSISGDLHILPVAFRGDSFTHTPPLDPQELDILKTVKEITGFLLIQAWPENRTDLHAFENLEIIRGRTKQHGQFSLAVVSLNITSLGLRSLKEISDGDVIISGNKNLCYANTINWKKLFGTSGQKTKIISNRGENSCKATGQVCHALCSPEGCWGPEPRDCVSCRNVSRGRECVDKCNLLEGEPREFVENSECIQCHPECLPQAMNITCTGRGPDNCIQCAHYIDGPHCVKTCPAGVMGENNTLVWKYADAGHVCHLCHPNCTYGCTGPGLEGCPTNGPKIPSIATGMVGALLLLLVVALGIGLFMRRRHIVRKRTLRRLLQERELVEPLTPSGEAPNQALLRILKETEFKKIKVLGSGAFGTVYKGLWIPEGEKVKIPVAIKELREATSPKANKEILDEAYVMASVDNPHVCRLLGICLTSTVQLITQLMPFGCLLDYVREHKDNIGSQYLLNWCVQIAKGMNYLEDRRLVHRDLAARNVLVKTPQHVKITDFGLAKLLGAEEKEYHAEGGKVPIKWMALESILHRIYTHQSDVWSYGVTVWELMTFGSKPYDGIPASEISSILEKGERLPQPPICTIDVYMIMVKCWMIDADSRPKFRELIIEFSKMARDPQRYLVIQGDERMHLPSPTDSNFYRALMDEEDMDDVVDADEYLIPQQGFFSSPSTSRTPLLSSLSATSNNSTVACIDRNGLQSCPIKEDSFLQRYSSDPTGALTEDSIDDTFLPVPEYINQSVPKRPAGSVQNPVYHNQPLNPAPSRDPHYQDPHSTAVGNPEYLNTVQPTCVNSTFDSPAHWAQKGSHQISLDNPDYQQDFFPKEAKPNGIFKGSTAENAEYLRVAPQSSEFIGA
- ASSAY_PROCEDURE: In vitro kinase assay (Z′-LYTE)
- Format: biochemical
- DETAILS: read-out: % of inhibition of the kinase compared to the control
Kindly supply the reported inhibition at 0.1 µM values for the records listed here.

# batch: return inhibition at 0.1 µM for each of the 3 molecules below
1. COC(=O)c1cc2cc(NCc3cc(NC(=O)c4ccc(CNCCN5CCN(C)CC5)c(C(F)(F)F)c4)ccc3C)cnc2[nH]1
2. COC(=O)c1cc2cc(NCc3cc(NC(=S)c4ccc(CN5CCN(C)CC5)c(C(F)(F)F)c4)ccc3C)cnc2[nH]1
3. COC(=O)c1cc2cc(NCc3cc(NC(=O)Nc4ccncc4)ccc3C)cnc2[nH]1

1: ≥ 50%; 2: ≥ 50%; 3: < 50%
